Data provenance: patent US6124269A

tested on: Escherichia coli SS; experiment: In vitro agar dilution MIC, organism code RR; assay type: cell-based; details: Table 1B, in µg/mL (unit assumed)
MEASUREMENT KIND: MIC

[[record]]
compound = "CC[C@H]1OC(=O)[C@@](C)(F)C(=O)[C@H](C)[C@@H](O[C@@H]2O[C@H](C)C[C@H](N(C)C)[C@H]2O)[C@](C)(OC/C=C/c2cnc3ccc(C=O)cc3c2)C[C@@H](C)C(=O)[C@H](C)[C@H]2NC(=O)O[C@@]21C"
recorded_measurement = 0.78

[[record]]
compound = "CC[C@H]1OC(=O)[C@@](C)(F)C(=O)[C@H](C)[C@@H](O[C@@H]2O[C@H](C)C[C@H](N(C)C)[C@H]2O)[C@](C)(OC/C=C/c2cnc3ccc(N)cc3c2)C[C@@H](C)C(=O)[C@H](C)[C@H]2NC(=O)O[C@@]21C"
recorded_measurement = 0.2

[[record]]
compound = "CC[C@H]1OC(=O)[C@@](C)(F)C(=O)[C@H](C)[C@@H](O[C@@H]2O[C@H](C)C[C@H](N(C)C)[C@H]2O)[C@](C)(OC/C=C/c2cnc3ccc(C(N)=O)cc3c2)C[C@@H](C)C(=O)[C@H](C)[C@H]2NC(=O)O[C@@]21C"
recorded_measurement = 0.2

[[record]]
compound = "CC[C@H]1OC(=O)C(C)(F)C(=O)[C@H](C)[C@@H](O[C@@H]2O[C@H](C)C[C@H](N(C)C)[C@H]2O)[C@](C)(OCC#CC(=O)c2ccc(Cl)nc2)C[C@@H](C)C(=O)[C@H](C)[C@H]2NC(=O)O[C@@]21C (stereo partly shown)"
recorded_measurement = 3.1

